molecular target: humanized development candidate monoclonal antibody IgG4 (hIgG4); assay: ELISA, medium of transfected HEK293F; signal on hIgG4 over signal on cynoIgG
VALUE_KIND: ELISA signal ratio hIgG4/CynoIgG
Respond using a number only.

BINDER | OBSERVED_RESULT
rabbit anti-human IgG monoclonal antibody clone 11G5 (antibody, V domains shown) VH: QSLEESGGDLVKPGASLTLTCTASGFSFSSSYYMCWVRQAPGKRLEWIACIYGGGLSNTYYAGWAKGRFTISKTSSTTVTLQMTSLTAADTATYFCARDATSGDYLNLWGPGTLVTVSS VL: AVVMTQTASPVSGAVGGTVTINCQASQSISASALSWYQQKPGQPPKLLIYAASTLESGVPSRFKGSGSGTQFTLTISGVQCDDAATYYCAYDGYRLSSADNIFGGGTEVVVKG | 5.19

Prompt: For the binder rabbit anti-human IgG monoclonal antibody clone 16F5 (antibody, V domains shown) VH: QQQLEESGGGLVKPGGTLTLTCKASGIDFSNYYYMCWVRQAPGKGLELIACIYTGSSGSTWYATWAKGRFTISKTSSTTVTLQMTSLTAADTATYFCARDRDVGSLYDSLDLWGQGTLVTVSP VL: AYDMTQTPASVEAAVGGTVTINCQASQSINNWLSWYQQKPGQRPKLLIYQASTLASGVSSRFKGSGSGTHFTLTISDLECADAATYYCQQGWSIDDIDNAFGGGTEVVVKG , give its reported ELISA signal ratio hIgG4/CynoIgG.
Completion: 6.33

Prompt: For the binder rabbit anti-human IgG monoclonal antibody clone 2C5 (antibody, V domains shown) VH: QEQLVESGGDLVKPGASLTLTCTASGFSFSSGYYMCWVRQAPGKGLEWIACIYGGALTNTYYATWAKGRFTISKTSSTTVTLQMTSLTAADTATYFCARDLGAAGDAYNLWGPGTLVTVSS VL: ASDMTQTPASVSAAVGGTVTIKCQASESIYSGLAWYQQKPGQPPKLLIFDASDLASGVPSRFKGSRSETEYTLTISDLECADAATYYCQCTDRNSITSYAFGGGTEVVVKG , give its reported ELISA signal ratio hIgG4/CynoIgG.
Completion: 7.91

Prompt: For the binder rabbit anti-human IgG monoclonal antibody clone 9E6 (antibody, V domains shown) VH: QSLEESGGDLVKPGASLTLTCKASGFDFSSSYYMCWVRQAPGRLEWIACIYGGGLSNTYYAGWAKGRFTISKTSSTTVTLQMTSLTVADTATYFCARDAGTSGDYLNLWGPGTLVTVSS VL: AVVMTQTASPVSGAVGGTVTINCQASQSISSSYLSWYQQKPGQPPKLLIYGASTLASGVPSRFKGSGSGTQFTLTISGVQCDDAATYYCAYDAYRLSSPDNIFGGGTEVVVKG , give its reported ELISA signal ratio hIgG4/CynoIgG.
Completion: 9.53
